Every entry's value here was drawn from patent US20240059769A1.

# target-or-system: T1, human TSLP (human, UniProt Q969D9 29-159)
# T1 construct: also called hTSLP; rhTSLP
# assay-explanation: SPR
Listed below: koff values for each entry.
Answer with a number only, understood to be in s⁻¹.

The following binders have reported results that may help.
BDG33.023 (antibody, V domains shown, standard IgG; also called BGD33.023; BDG33.0023) VH: QMQLVESGGGVVQPGRSLRLSCAASGFAFRTYGMHWVRQAPGKGLEWVAVIWYDGSNTHYADSVKGRFTITRDNSKNTLNLQMNSLRAEDTAVYYCARAPQWYLSAEAFDLWGQGTMVTVSS VL: SYVLTQPPSVSVAPGQTARITCGGNLIGSKLVHWYQQKPGQAPVLVVYDDSDRPSRIPERFSGSNSGNTATLTISRVEAGDEADYYCQVWDHSSDHVVFGGGTKLTVL | 6.84e-05
BDG38.080 (antibody, V domains shown, IgG1) VH: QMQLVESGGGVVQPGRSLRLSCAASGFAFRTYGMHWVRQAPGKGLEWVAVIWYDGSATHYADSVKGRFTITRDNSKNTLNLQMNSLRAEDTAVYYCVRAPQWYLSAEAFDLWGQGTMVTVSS VL: SYVLTQPPSVSVAPGETATITCGGNLIGAYLVHWYQQKPGQAPVLVIYDDSDRPDRIPERFSGSNSGNTATLTISRVEAGDEADYYCQVWDHNTNHMVFGGGTKLTVL | 1.81e-05
BDG38.077 (antibody, V domains shown, IgG1) VH: QMQLVESGGGVVQPGRSLTLSCAASGFAFRTYGMHWVRQAPGKGLEWVGVIWYDGSATHYADSVKGRFTITRDNSKNTLNLQMNSLRAEDTAVYYCVRAPQWYLTAEAFDLWGQGTMVTVSS VL: SYVLTQPPSVSVAPGETATITCGGALIGSRLVHWYQQKPGQAPVLVIYDDSDRPSRIPERFSGSNIGNTATLTISDVEAGDEADYYCQVWDHSSNTYVFGGGTKLTVL | 0.000144
BDG38.078 (antibody, V domains shown, IgG1) VH: QMQLVESGGGVVQPGRSLRLSCAASGFEFRTYGMHWVRQAPGKGLEWLGVIWYDGSNTHYADSVKGRFTITRDNSKNTLNLQMNSLRVEDTAVYYCVRAPQWYLTAEAFDLWGQGTMVTVSS VL: SYILTQPPSVSVAPGETATITCGGNLIGARLVHWYQQKPGQAPVLVIYDDSDRPSRIPERFSGSNIGNTATLTIERVEAGDEADYYCQVWDYYSDHMVFGGGTKLTVL | 2.95e-07

Next up:
Name the recorded koff for BDG38.083 (antibody, V domains shown, IgG1) VH: QMQLVESGGGVVQPGRSLTLSCAASGFEFRTYGMHWVRQAPGKGLEWVGVIWDDGSNTHYADSVKGRFTITRDNSKNTLNLQMNSLRAEDTAVYYCARAPQWYLTAEAFDLWGQGTMVTVSS VL: SYILTQPPSVSVAPGQTATITCGGNLIGAKLVHWYQQKPGQAPVLVIYDDSDRPSRIPERFSGSNIGNTATLTISDVEEGDEADYYCQVWDYSSDTMVFGGGTKLTVL .
0.000241
